B1: SNAP91 (parent)
chain: FGGSFMAPSPSPVTPAQNNLLQPN

# Variants of: B1
# ASSAY OVERVIEW: protein stability index of a GFP-peptide fusion (GPS, HEK-293T) (PSI 1-6); higher = more stable;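 note: lentivirally expressed fusions sorted by FACS into six bins by GFP to DsRed ratio, PSI derived from sequencing read proportions per bin multiplied by bin number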
# CONDITION NOTES: c terminus: a fixed tail appended
Label rule, in plain words: protein stability index of 2 and up is rule met, under 2 is rule not met.

Exam item: decide whether the reported protein stability index for `P15D` is at least 2.
rule met

Exam item: decide whether the reported protein stability index for `P12V` is at least 2.
rule not met

Exam item: decide whether the reported protein stability index for `P10K` is at least 2.
rule met

Exam item: decide whether the reported protein stability index for `F5A` is at least 2.
rule met

Exam item: decide whether the reported protein stability index for `P12N` is at least 2.
rule met

Exam item: decide whether the reported protein stability index for `P12I` is at least 2.
rule not met

Exam item: decide whether the reported protein stability index for `P12F` is at least 2.
rule not met

Exam item: decide whether the reported protein stability index for `P8N` is at least 2.
rule met

Exam item: decide whether the reported protein stability index for `P12L` is at least 2.
rule not met

Exam item: decide whether the reported protein stability index for `P12K` is at least 2.
rule not met

Exam item: decide whether the reported protein stability index for `P15K` is at least 2.
rule not met

Exam item: decide whether the reported protein stability index for `T14E` is at least 2.
rule not met

Exam item: decide whether the reported protein stability index for `S9M` is at least 2.
rule met

Exam item: decide whether the reported protein stability index for `A7H` is at least 2.
rule met

Exam item: decide whether the reported protein stability index for `S9K` is at least 2.
rule not met

Exam item: decide whether the reported protein stability index for `P8W` is at least 2.
rule met

Exam item: decide whether the reported protein stability index for `P12T` is at least 2.
rule not met

Exam item: decide whether the reported protein stability index for `P10A` is at least 2.
rule met

Exam item: decide whether the reported protein stability index for `T14L` is at least 2.
rule met

Exam item: decide whether the reported protein stability index for `G2Y` is at least 2.
rule met

Exam item: decide whether the reported protein stability index for `T14G` is at least 2.
rule met

Exam item: decide whether the reported protein stability index for `T14K` is at least 2.
rule met

Exam item: decide whether the reported protein stability index for `P12Q` is at least 2.
rule met

Exam item: decide whether the reported protein stability index for `P12E` is at least 2.
rule not met

Exam item: decide whether the reported protein stability index for `P15S` is at least 2.
rule met

Exam item: decide whether the reported protein stability index for `S9W` is at least 2.
rule met

Exam item: decide whether the reported protein stability index for `P8F` is at least 2.
rule met

Exam item: decide whether the reported protein stability index for `P10D` is at least 2.
rule met

Exam item: decide whether the reported protein stability index for `S11Q` is at least 2.
rule met

Exam item: decide whether the reported protein stability index for `S11R` is at least 2.
rule not met

Exam item: decide whether the reported protein stability index for `A7L` is at least 2.
rule not met

Exam item: decide whether the reported protein stability index for `S9E` is at least 2.
rule not met

Exam item: decide whether the reported protein stability index for `F1N` is at least 2.
rule met

Exam item: decide whether the reported protein stability index for `P8L` is at least 2.
rule met

Exam item: decide whether the reported protein stability index for `S9R` is at least 2.
rule not met

Exam item: decide whether the reported protein stability index for `P15R` is at least 2.
rule met

Exam item: decide whether the reported protein stability index for `S9Q` is at least 2.
rule not met

Exam item: decide whether the reported protein stability index for `P12M` is at least 2.
rule met

Exam item: decide whether the reported protein stability index for `S11M` is at least 2.
rule met

Exam item: decide whether the reported protein stability index for `A7Q` is at least 2.
rule met

Exam item: decide whether the reported protein stability index for `P15N` is at least 2.
rule not met

Exam item: decide whether the reported protein stability index for `G3N` is at least 2.
rule met

Exam item: decide whether the reported protein stability index for `G3D` is at least 2.
rule met
